Test system: HT-29
assay.explanation: Cytotoxicity against human HT-29 cells assessed as reduction in cell viability by SRB assay
Assay type: functional, cell-based
metric: IC50 (µM)
Form entry: value (µM) — number only.

Problem: Output measured IC50 for this item: CC(=O)O[C@@H]1CC[C@]2(C)[C@H](CC[C@]3(CNc4ccccc4F)O[C@H](C4=CCOC4=O)C[C@H]32)[C@]1(C)CO[Si](C(C)C)(C(C)C)C(C)C
Result: 30.2

Problem: Recall and state the measured IC50 for CC(=O)O[C@@H]1CC[C@]2(C)[C@H](CC[C@]3(CNc4ccc(Br)cc4)O[C@H](C4=CCOC4=O)C[C@H]32)[C@]1(C)CO[Si](C)(C)C(C)(C)C .
Result: 27.7

Problem: Specify reported IC50 for the compound shown: CC(=O)O[C@@H]1CC[C@]2(C)[C@H](CC[C@]3(CNc4ccccc4F)O[C@H](C4=CCOC4=O)C[C@H]32)[C@]1(C)CO[Si](C)(C)C(C)(C)C
Result: 5.59

Problem: For CC(=O)O[C@@H]1CC[C@]2(C)[C@H](CC[C@]3(CNc4ccccc4)O[C@H](C4=CCOC4=O)C[C@H]32)[C@]1(C)CO[Si](C)(C)C(C)(C)C , write its IC50.
Result: 8.5

Problem: Read the entry CC(=O)O[C@@H]1CC[C@]2(C)[C@H](CC[C@]3(CNc4cccc(F)c4)O[C@H](C4=CCOC4=O)C[C@H]32)[C@]1(C)CO[Si](C)(C)C(C)(C)C and write its reported IC50.
Result: 26.2

Problem: For the compound C=C1CC[C@@H]2[C@](C)(CO)[C@H](O)CC[C@@]2(C)[C@@H]1C/C=C1/C(=O)OC[C@H]1O [ANDROGRAPHOLIDE] , give its reported IC50.
Result: 9.34

Problem: Determine its reported IC50: CC(=O)OC[C@@]1(C)[C@H]2CC[C@]3(CNc4cccc(F)c4)O[C@H](C4=CCOC4=O)C[C@H]3[C@]2(C)CC[C@H]1OC(C)=O
Result: 5.87

====

Answer each item with its documented IC50.
System: P388
assay.explanation: Cytotoxicity against mouse P388 cells assessed as reduction in cell viability by SRB assay
Type: functional, cell-based
Give the value, in units of µM, as a plain number.

Problem: Given CC(=O)OC[C@@]1(C)[C@H]2CC[C@]3(CNc4cccc(F)c4)O[C@H](C4=CCOC4=O)C[C@H]3[C@]2(C)CC[C@H]1OC(C)=O , respond with its IC50.
Result: 6.85

Problem: Respond only with IC50 recorded for CC(=O)OC[C@@]1(C)[C@H]2CC[C@]3(CNc4ccc(Br)cc4)O[C@H](C4=CCOC4=O)C[C@H]3[C@]2(C)CC[C@H]1OC(C)=O
Result: 7.47

Problem: Give the reported IC50 for this compound. CC(=O)O[C@@H]1CC[C@]2(C)[C@H](CC[C@]3(CNc4ccc(Br)cc4)O[C@H](C4=CCOC4=O)C[C@H]32)[C@]1(C)CO[Si](C(C)C)(C(C)C)C(C)C
Result: 40.5

Problem: Retrieve IC50 measured for CC(=O)OC[C@@]1(C)[C@H]2CC[C@]3(CNc4ccccc4)O[C@H](C4=CCOC4=O)C[C@H]3[C@]2(C)CC[C@H]1OC(C)=O and print it.
Result: 40

Problem: Indicate its recorded IC50; the compound in question is CC(=O)O[C@@H]1CC[C@]2(C)[C@H](CC[C@]3(CNc4cccc(F)c4)O[C@H](C4=CCOC4=O)C[C@H]32)[C@]1(C)CO[Si](C(C)C)(C(C)C)C(C)C
Result: 7.95
